Molecular target: GLP-1R (Homo sapiens, UniProt P43220)
Construct: host or cells: GLP-1R CRE-bla CHO-K1 cells
Sequence (P43220 24-463): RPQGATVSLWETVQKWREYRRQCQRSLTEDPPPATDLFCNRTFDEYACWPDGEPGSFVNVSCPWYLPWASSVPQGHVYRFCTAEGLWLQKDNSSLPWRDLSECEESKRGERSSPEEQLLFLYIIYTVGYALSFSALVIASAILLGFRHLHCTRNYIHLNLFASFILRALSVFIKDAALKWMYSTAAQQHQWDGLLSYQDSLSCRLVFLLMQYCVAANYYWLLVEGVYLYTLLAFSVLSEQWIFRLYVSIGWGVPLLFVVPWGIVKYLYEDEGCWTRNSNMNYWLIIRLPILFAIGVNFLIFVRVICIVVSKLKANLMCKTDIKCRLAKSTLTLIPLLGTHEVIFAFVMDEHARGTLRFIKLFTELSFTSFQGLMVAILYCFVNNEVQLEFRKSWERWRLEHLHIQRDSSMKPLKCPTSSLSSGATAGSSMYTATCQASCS
Sequence (P01275 100-127 partner limits assumed): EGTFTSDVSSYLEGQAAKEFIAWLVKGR
Test: EC20 GLP-1(9-36) PAM cAMP assay: dose response of compound in the presence of fixed concentration of GLP-1(9-36)
Type: cell-based
Settings: GLP-1R CRE-bla CHO-K1 cells, compound dose response with fixed concentration of GLP-1(9-36), read-out: EC20 GLP-1(9-36) PAM EC50
Description: EC20 GLP-1(9-36) PAM cAMP Assay: Dose Response of Compound in the Presence of Fixed Concentration of GLP-1 (9-36). […]
pEC50: −log10 of the molar value.
# pEC50 per record follows
endpoint-label: pEC50

INSERT INTO results (smi, endpoint_label, readout_value) VALUES
  ('Cc1ccc(/C=C/c2cnc(-c3ccc(C[C@H](NC(=O)c4ccc(C(C)(C)C)s4)C(=O)N[C@H](C)C(=O)O)cc3)nc2)cc1', 'pEC50', '5.60 to 6.10'),
  ('CCCc1ccc(-c2ccc(-c3cnc(-c4ccc(C[C@H](NC(=O)c5ccc(C(C)(C)C)s5)C(=O)N[C@H](C)C(=O)O)cc4)nc3)c(F)c2)cc1', 'pEC50', '> 6.10'),
  ('CC(C)(C)c1ccc(C(=O)N[C@@H](Cc2ccc(-c3ncc(N4CCC(c5cccc(Br)c5)CC4)cn3)cc2)C(=O)N2CC(C(=O)O)C2)s1', 'pEC50', '5.60 to 6.10'),
  ('CCOc1ccc(-c2cnc(-c3ccc(C[C@H](NC(=O)c4ccc(C(C)(C)C)s4)C(=O)O)cc3)nc2)cc1', 'pEC50', '5.00 to 5.30'),
  ('CCCc1ccc(N2CCN(c3cnc(-c4ccc(C[C@H](NC(=O)c5ccc(C(C)(C)C)s5)C(=O)N5CC(C(=O)O)C5)cc4)nc3)CC2)cc1', 'pEC50', '> 6.10'),
  ('CCc1ccc(C2CCN(c3cnc(-c4ccc(C[C@H](NC(=O)c5ccc(C(C)(C)C)s5)C(=O)N5CC(C(=O)O)C5)cc4)nc3)CC2)cc1', 'pEC50', '> 6.10'),
  ('CC[C@H]1CC[C@H](c2ccc(-c3cnc(-c4ccc(C[C@H](NC(=O)c5ccc(C(C)(C)C)s5)C(=O)N[C@H](C(=O)O)C(C)C)cc4)nc3)cc2)CC1', 'pEC50', '5.60 to 6.10'),
  ('CC(C)Cc1ccc(-c2ccc(-c3cnc(-c4ccc(C[C@H](NC(=O)c5ccc(C(C)(C)C)s5)C(=O)N5CC(C(=O)O)C5)cc4)nc3)c(F)c2)cc1', 'pEC50', '> 6.10'),
  ('CCCCCCCOc1ccc(-c2cnc(-c3ccc(C[C@H](NC(=O)c4ccc(C(C)(C)C)s4)C(=O)N[C@H]4C[C@H](N)C4)cc3)nc2)cc1', 'pEC50', '5.30 to 5.60'),
  ('C[C@@H](NC(=O)[C@H](Cc1ccc(-c2ncc(-c3ccc(-c4ccccc4)nc3)cn2)cc1)NC(=O)c1ccc(C(C)(C)C)s1)C(=O)O', 'pEC50', '5.00 to 5.30'),
  ('Cc1ccc(-c2ccc(-c3cnc(-c4ccc(C[C@H](NC(=O)c5ccc(C(C)(C)C)s5)C(=O)N[C@H](C)C(=O)O)cc4)nc3)cc2)cc1', 'pEC50', '> 6.10'),
  ('CCC[C@H]1CC[C@H](C2CCN(c3cnc(-c4ccc(C[C@H](NC(=O)c5ccc(C(C)C)s5)C(=O)N5CC(C(=O)O)C5)cc4)nc3)CC2)CC1', 'pEC50', '> 6.10');
